Test system: NCI-H460
assay.method.text: NCI tumour cell line growth inhibition, 48 h
Calls of active or inactive are those of the source. Rule as the data show it: active = GI50 up to about 1.1 µM and inactive = higher.
// allowed return values: active, inactive

Please review the following examples before continuing.
# molecule, measured.target, cat
data = [
    ("CO[C@H]1[C@@H](O)[C@H](O[C@@H]2C[C@H]3CC[C@@H]4[C@H](CC[C@]5(C)[C@@H](C6=CC(=O)OC6)CC[C@]45O)[C@@]3(C)[C@H](OC(C)=O)C2)O[C@@H](C)[C@H]1O", "NCI-H460", "active"),
    ("COc1cccc2c1/c(=C/c1ccc(N(C)C)cc1)c1cc(-c3ccccc3)[n+](C)n12", "NCI-H460", "active"),
    ("CC(=O)Nc1ccc(/C=C/C(=O)c2sc(-c3nc(C)c(C(=O)/C=C/c4ccc(NC(C)=O)cc4)s3)nc2C)cc1", "NCI-H460", "inactive"),
    ("O=C(CC1(O)C(=O)Nc2ccccc21)c1ccc(F)cc1 (stereo unspecified)", "NCI-H460", "inactive"),
    ("COC(=O)C1(Cc2cccc(Cl)c2)CCCCCCN1C(=O)c1ccccc1 (stereo unspecified)", "NCI-H460", "inactive"),
]

Query: I'd appreciate the recorded outcome for NS(=O)(=O)c1cc(Cl)c(NC(=S)NC(=O)Nc2ccc(Cl)c(Cl)c2)c(Cl)c1 from this test.
Result: inactive

Query: I'd appreciate the recorded outcome for CC1=C(C(=O)Nc2ccc([N+](=O)[O-])cc2)C(c2ccc3c(c2)OCO3)C(C(=O)Nc2ccc([N+](=O)[O-])cc2)=C(C)N1 from this test.
Result: inactive

Query: I'd appreciate the recorded outcome for O=C(/C=C/c1ccc(Cl)cc1)c1ccccc(=O)c1O from this test.
Result: active
